# TEST TARGET: Aromatase (Homo sapiens)
# Sequence (P11511 whole entry): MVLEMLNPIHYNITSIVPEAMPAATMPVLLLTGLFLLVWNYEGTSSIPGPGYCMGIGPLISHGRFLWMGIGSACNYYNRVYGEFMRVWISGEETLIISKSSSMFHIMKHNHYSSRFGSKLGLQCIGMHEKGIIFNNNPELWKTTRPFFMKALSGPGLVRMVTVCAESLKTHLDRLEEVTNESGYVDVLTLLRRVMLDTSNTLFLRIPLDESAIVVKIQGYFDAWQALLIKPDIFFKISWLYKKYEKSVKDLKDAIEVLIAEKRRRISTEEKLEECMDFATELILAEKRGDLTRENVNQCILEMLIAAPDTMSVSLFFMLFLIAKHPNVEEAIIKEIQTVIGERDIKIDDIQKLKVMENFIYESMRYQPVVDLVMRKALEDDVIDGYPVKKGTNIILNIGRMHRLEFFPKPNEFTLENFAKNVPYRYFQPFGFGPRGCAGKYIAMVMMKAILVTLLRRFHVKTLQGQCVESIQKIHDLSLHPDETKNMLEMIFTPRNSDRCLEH
# MEASUREMENT DESCRIPTION: Inhibition of human recombinant aromatase using 7-methoxy-4-trifluoromethyl coumarin as substrate by fluorimetric analysis
QUANTITY KIND: IC50 (nM)

{"columns": ["COMPOUND", "IC50, nM"],
 "data": [
  ["O=c1oc2cc(OCC(O)Cn3cncn3)ccc2c2c1CCC2 (racemic)", 21700],
  ["Cc1cc(C)c(S(=O)(=O)NCCCn2ccnc2)cc1C", 172],
  ["COc1ccc(C(C)NC(=O)c2ccccc2Cn2cncn2)cc1F (racemic)", 3100],
  ["COc1ccc(S(=O)(=O)NCCCn2ccnc2)cc1C", 61.6]
]}

[a] O=C(C(=Cc1ccccc1)n1cncn1)c1ccc(Cl)cc1Cl (mixture of isomers)
[b] CCc1[nH]c2ccc(C(=O)NCC(C)n3cncn3)cc2c1C (racemic)
Between a and b , which one shows the larger IC50 value? Returns: label corresponding to the selected item.
b

====

# TEST TARGET: Aromatase (Homo sapiens)
# MEASUREMENT DESCRIPTION: Inhibition of human recombinant aromatase using 7-methoxy-4-trifluoromethyl coumarin as substrate by fluorimetric analysis
pIC50: −log10 of the molar value.
QUANTITY KIND: pIC50

Recorded pIC50, per entry:
{"columns": ["MOLECULE", "pIC50"],
 "data": [
  ["C=CCN(c1ccc(C(=O)NCCCn2ccnc2)cc1)S(C)(=O)=O", 5.60],
  ["COc1ccc(S(=O)(=O)NCCCn2ccnc2)cc1F", 7.00],
  ["O=C(Cn1ccnc1)Nc1ccccc1Oc1ccc(F)cc1", 6.61],
  ["CC(=O)c1ccc(S(=O)(=O)N2CCOC(Cn3ccnc3)C2)cc1 (racemic)", 7.18],
  ["COc1ccc(S(=O)(=O)N2CCOC(Cn3ccnc3)C2)cc1 (racemic)", 7.10]
]}

[P] O=C(Cc1ccc2c(c1)OCO2)N1CCOC(Cn2ccnc2)C1 (racemic)
[Q] CCOc1ccc(S(=O)(=O)NCCCn2ccnc2)c2ccccc12
[R] O=S(=O)(NCCCn1ccnc1)c1ccc2c(c1)OCCO2
[S] Cc1ccc(C(=O)NCCCn2ccnc2)cn1
# rank_down: sort by pIC50, max first Provide the ranking by listing each label in its place in the requested order.
P, R, Q, S

[I] Cc1ccc(C(=O)NCCCn2ccnc2)cc1[N+](=O)[O-]
[II] COc1cc(CC(=O)N2CCOC(Cn3ccnc3)C2)cc(OC)c1OC (racemic)
Among I and II , whose measured pIC50 is the smaller figure? Returns: label corresponding to the selected item.
I

====

# TEST TARGET: UniProtKB P11511
# MEASUREMENT DESCRIPTION: Inhibition of human recombinant aromatase using 7-methoxy-4-trifluoromethyl coumarin as substrate by fluorimetric analysis
pIC50: −log10 of the molar value.
QUANTITY KIND: pIC50

Recorded pIC50, per entry:
{"columns": ["COMPOUND", "QUANTITY KIND", "RECORDED NUMBER"],
 "data": [
  ["COc1ccc(S(=O)(=O)N2CCCC(Cn3ccnc3)C2)cc1C(C)(C)C (racemic)", "pIC50", 8.03],
  ["COc1ccc2c(c1)OC1(CCN(C(=O)Cn3cncn3)CC1)CC2=O", "pIC50", 5.24],
  ["CC(C)(C(=O)Nc1ccccc1Oc1ccc(F)cc1)n1cncn1", "pIC50", 4.88]
]}

[P] O=C(Cc1ccc(F)cc1)N1CCOC(Cn2ccnc2)C1 (racemic)
[Q] O=C(Cn1cncn1)NC(CCc1ccccc1)c1ccc2c(c1)OCCO2 (racemic)
[R] COc1ccc(C(=O)OC(COc2ccccc2)Cn2ccnc2)cc1 (racemic)
[S] O=C(CCn1ccnc1)NC[C@H]1CC[C@H](c2ncncc2-c2ccccn2)CC1
[T] COc1ccc(S(=O)(=O)NCCCn2ccnc2)cc1C(C)(C)C
# rank_down: sort by pIC50, max first Provide the ranking by listing each label in its place in the requested order.
R, P, T, Q, S
(R: 7.78, P: 7.46, T: 6.36, Q: 6.00, S: 5.51)

[I] CC1(C)Oc2ccc(S(=O)(=O)NCCCn3ccnc3)cc2NC1=O
[II] Cc1ncc(CNc2ccc(OCC(O)Cn3ccnc3)cc2)cn1 (racemic)
[III] COc1cc(Cl)c(S(=O)(=O)NCCCn2ccnc2)cc1Cl
Arrange items by their pIC50 values in increasing order. Provide the ranking by listing each label in its place in the requested order.
II, I, III
